Reported MIC is given for each of the following molecules.
- System: Mycobacterium tuberculosis H37Ra
- TEST: MIC, BacTiter-Glo ATP quantification, surrogate Mtb strain
- Type: cell-based
- CONDITIONS: Mycobacterium tuberculosis, H37RA, 168 h, read-out: MIC Mtb, Mycobacterium tuberculosis H37Ra, 7H9-palmitate, 7 days, BacTiter-Glo, n=3
Write the number in µM without appending the unit.

CC1(C)S[C@@H]2[C@H](NC(=O)[C@H](N)c3ccccc3)C(=O)N2[C@H]1C(=O)O [AMP, ampicillin, reference compound]: 184
c1ccc(-c2nc(-c3ccccn3)c3ccc4ccccc4n23)cc1: 25
CO[C@H]1/C=C/O[C@@]2(C)Oc3c(C)c(O)c4c(O)c(c(/C=N/N5CCN(C)CC5)c(O)c4c3C2=O)NC(=O)/C(C)=C\C=C\[C@H](C)[C@H](O)[C@@H](C)[C@@H](O)[C@@H](C)[C@H](OC(C)=O)[C@@H]1C [rifampicin, reference compound]: 0.07
c1ccc(-c2nc(-c3ncccn3)c3ccc4ccccc4n23)cc1: 1
COc1ccccc1-c1nc(-c2ccccc2)n2c1ccc1ccccc12: 46

GET /value?item= "c1ccc(-c2ccc(-c3nc(-c4ccccc4)n4c3ccc3ccccc34)nc2)cc1" &field=MIC returns 34

Per the record, "CN(C)c1ccccc1-c1nc(-c2ccccc2)n2c1ccc1ccccc12" has MIC of 2

Lab note: CNC(C)C1CCC(N)C(OC2C(N)CC(N)C(OC3OCC(C)(O)C(NC)C3O)C2O)O1 (stereo not drawn) [gentamicin, reference compound] gave MIC of 4

====

- TEST: in vitro
- CONDITIONS: human
ENDPOINT_NAME: IC50 at 3 days

Data point: "c1ccc(-c2nc(-c3cc4ccccc4cn3)c3ccc4ccccc4n23)cc1" ; IC50 at 3 days = > 100 µM

====

- Tested on: Mycobacterium tuberculosis ATCC 35801
- TEST: Resazurin microtiter assay, second-tier BSL-3
- Assay type: cell-based
- CONDITIONS: ATCC35801, resazurin, 7 days + 24 h, read-out: IC50 Mtb ATCC 35801
ENDPOINT_NAME: pIC50
As a rule, pIC50 stands for the negative log10 of the concentration, concentration in M.

Note to self: pIC50 recorded for c1ccc(-c2nc(-c3cc4ccccc4cn3)c3ccc4ccccc4n23)cc1 [5g] was 4.06

====

- System: Mycobacterium tuberculosis H37Ra
- TEST: MIC, BacTiter-Glo ATP quantification, surrogate Mtb strain
- Format: cell-based
- CONDITIONS: Mycobacterium tuberculosis, H37RA, 168 h, read-out: MIC Mtb, Mycobacterium tuberculosis H37Ra, 7H9-palmitate, 7 days, BacTiter-Glo, n=3
ENDPOINT_NAME: MIC

c1ccc(-c2nc(-c3ccccc3)n3c2ccc2ccccc23)cc1 [5b]: > 200 µM
c1ccc(-c2nc(-c3cc4ccccc4cn3)c3ccc4ccccc4n23)cc1 [5g]: ≤ 2 µM
c1ccc(-c2nc(-c3cccs3)c3ccc4ccccc4n23)cc1 [5a]: > 196 µM

Would you kindly look at the next entry?
Observed MIC on Mycobacterium tuberculosis H37Ra, entry c1ccc(N(c2ccccc2)c2nc(-c3ccccn3)c3ccc4ccccc4n23)cc1 [8a] , equals > 155 µM
